# measurement.protocol: Metabolic stability in mouse liver microsomes assessed as compound remaining at 5 uM after 30 mins under normoxia conditions in presence of NADPH by HPLC method
# Format: ADME
# condition.description: read-out: Stability
test.readout: remaining at 0.5 h, 5 µM (%)
Numbers only; they are read as %.

Sure, the documented remaining at 0.5 h, 5 µM for COc1cc2ncnc(Nc3ccc(F)c(Cl)c3)c2cc1OCCCCn1ccnc1[N+](=O)[O-] is 70

----------
pIC50: −log10 of the molar value.
Epidermal growth factor receptor (Homo sapiens): reported pIC50 for various molecules.
test.readout: pIC50

Sure, the documented pIC50 for COc1cc2ncnc(Nc3ccc(OCc4cccc(F)c4)c(Cl)c3)c2cc1OCCCCCn1ccnc1[N+](=O)[O-] is 7.29

I. COc1cc2ncnc(Nc3cccc(Br)c3)c2cc1OCCCn1ccnc1[N+](=O)[O-]
II. COc1cc2ncnc(Nc3ccc(F)c(Cl)c3)c2cc1OCCn1c([N+](=O)[O-])cnc1C
When I and II are compared, which has the higher number for pIC50? Response format: the label of the selected entry. I

----------
The following compounds are listed with their measured remaining at 0.5 h, 5 µM values.
# measurement.protocol: Metabolic stability in mouse liver microsomes assessed as compound remaining at 5 uM after 30 mins under hypoxia conditions in presence of NADPH by HPLC method
# Type: ADME
# condition.description: read-out: Stability

Sure, the documented remaining at 0.5 h, 5 µM for COc1cc2ncnc(Nc3ccc(F)c(Cl)c3)c2cc1OCCCCn1ccnc1[N+](=O)[O-] is < 10%

Please find the next compound below.
Sure, the documented remaining at 0.5 h, 5 µM for COc1cc2ncnc(Nc3ccc(F)c(Cl)c3)c2cc1OCCCN1CCOCC1 is > 90%

----------
# assayed.target: UniProt P00533
pIC50: −log10 of the molar value.
test.readout: pIC50

Would you please look over these solved cases?
Sure, the documented pIC50 for COc1cc2ncnc(Nc3ccc(F)c(Cl)c3)c2cc1OCCCCCn1ccnc1[N+](=O)[O-] is 9.29

Sure, the documented pIC50 for COc1cc2ncnc(Nc3ccc(F)c(Cl)c3)c2cc1OCCCn1c([N+](=O)[O-])cnc1C is 8.46

Sure, the documented pIC50 for COc1cc2ncnc(Nc3ccc(OCc4cccc(F)c4)c(Cl)c3)c2cc1OCCCCn1ccnc1[N+](=O)[O-] is 7.55

Sure, the documented pIC50 for COc1cc2ncnc(Nc3ccc(F)c(Cl)c3)c2cc1OCCCCn1c([N+](=O)[O-])cnc1C is 9.28

A. C#Cc1cccc(Nc2ncnc3cc(OC)c(OCCCn4ccnc4[N+](=O)[O-])cc23)c1
B. C#Cc1cccc(Nc2ncnc3cc(OC)c(OCCCCn4ccnc4[N+](=O)[O-])cc23)c1
From the items above, decide which of A and B has the lower pIC50 reading. Response format: the label of the selected entry. A

----------
# assayed.target: Epidermal growth factor receptor (Homo sapiens, UniProt P00533)
# Sequence (P00533 whole entry): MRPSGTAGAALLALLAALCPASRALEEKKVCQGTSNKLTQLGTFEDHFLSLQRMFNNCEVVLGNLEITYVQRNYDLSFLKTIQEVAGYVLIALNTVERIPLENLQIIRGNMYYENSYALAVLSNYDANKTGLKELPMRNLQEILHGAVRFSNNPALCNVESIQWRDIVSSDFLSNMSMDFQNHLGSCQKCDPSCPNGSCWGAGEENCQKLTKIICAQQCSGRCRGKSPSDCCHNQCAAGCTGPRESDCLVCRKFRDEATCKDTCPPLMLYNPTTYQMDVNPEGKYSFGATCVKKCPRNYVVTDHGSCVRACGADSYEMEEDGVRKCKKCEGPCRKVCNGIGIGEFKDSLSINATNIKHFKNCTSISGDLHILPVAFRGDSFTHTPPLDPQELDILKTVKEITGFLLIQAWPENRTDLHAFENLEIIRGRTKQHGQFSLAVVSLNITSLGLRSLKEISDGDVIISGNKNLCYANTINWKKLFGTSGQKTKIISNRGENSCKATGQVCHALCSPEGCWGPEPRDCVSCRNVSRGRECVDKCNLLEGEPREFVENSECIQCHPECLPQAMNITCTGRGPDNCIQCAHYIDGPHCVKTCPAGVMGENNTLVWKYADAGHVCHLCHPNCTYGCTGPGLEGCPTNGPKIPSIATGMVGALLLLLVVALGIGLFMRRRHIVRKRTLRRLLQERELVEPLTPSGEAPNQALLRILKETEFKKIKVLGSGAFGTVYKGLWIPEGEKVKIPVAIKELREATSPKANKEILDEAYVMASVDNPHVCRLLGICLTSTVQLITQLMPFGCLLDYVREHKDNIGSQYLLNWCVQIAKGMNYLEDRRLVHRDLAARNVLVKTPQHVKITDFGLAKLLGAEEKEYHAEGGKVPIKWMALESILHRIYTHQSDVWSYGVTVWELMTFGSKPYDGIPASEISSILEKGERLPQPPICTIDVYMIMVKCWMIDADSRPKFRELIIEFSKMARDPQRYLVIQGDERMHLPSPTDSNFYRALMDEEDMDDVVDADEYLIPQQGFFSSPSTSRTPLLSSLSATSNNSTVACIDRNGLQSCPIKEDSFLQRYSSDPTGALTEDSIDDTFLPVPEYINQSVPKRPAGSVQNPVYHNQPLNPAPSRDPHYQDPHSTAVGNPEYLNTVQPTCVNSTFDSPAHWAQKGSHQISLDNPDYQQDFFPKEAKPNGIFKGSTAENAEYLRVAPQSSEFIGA
# measurement.protocol: Inhibition of wild type EGFR (unknown origin) by Z'-Lyte kinase assay
pIC50: −log10 of the molar value.
test.readout: pIC50

Value sought: pIC50, system Epidermal growth factor receptor (Homo sapiens, UniProt P00533), item C#Cc1cccc(Nc2ncnc3cc(OC)c(OCCCCCCn4ccnc4[N+](=O)[O-])cc23)c1 . Result: 9.30

1. COc1cc2ncnc(Nc3ccc(F)c(Cl)c3)c2cc1OCCCCn1ccnc1[N+](=O)[O-]
2. COc1cc2ncnc(Nc3ccc(F)c(Cl)c3)c2cc1OCCCn1ccnc1[N+](=O)[O-]
From the items above, decide which of 1 and 2 has the lower pIC50 reading. Response format: the label of the selected entry. 2
(2: 9.05, 1: 9.33)
